# STUDY_TARGET: Multidrug efflux pump subunit AcrB (Escherichia coli (strain K12)) (UniProt P31224)
# Sequence (whole entry): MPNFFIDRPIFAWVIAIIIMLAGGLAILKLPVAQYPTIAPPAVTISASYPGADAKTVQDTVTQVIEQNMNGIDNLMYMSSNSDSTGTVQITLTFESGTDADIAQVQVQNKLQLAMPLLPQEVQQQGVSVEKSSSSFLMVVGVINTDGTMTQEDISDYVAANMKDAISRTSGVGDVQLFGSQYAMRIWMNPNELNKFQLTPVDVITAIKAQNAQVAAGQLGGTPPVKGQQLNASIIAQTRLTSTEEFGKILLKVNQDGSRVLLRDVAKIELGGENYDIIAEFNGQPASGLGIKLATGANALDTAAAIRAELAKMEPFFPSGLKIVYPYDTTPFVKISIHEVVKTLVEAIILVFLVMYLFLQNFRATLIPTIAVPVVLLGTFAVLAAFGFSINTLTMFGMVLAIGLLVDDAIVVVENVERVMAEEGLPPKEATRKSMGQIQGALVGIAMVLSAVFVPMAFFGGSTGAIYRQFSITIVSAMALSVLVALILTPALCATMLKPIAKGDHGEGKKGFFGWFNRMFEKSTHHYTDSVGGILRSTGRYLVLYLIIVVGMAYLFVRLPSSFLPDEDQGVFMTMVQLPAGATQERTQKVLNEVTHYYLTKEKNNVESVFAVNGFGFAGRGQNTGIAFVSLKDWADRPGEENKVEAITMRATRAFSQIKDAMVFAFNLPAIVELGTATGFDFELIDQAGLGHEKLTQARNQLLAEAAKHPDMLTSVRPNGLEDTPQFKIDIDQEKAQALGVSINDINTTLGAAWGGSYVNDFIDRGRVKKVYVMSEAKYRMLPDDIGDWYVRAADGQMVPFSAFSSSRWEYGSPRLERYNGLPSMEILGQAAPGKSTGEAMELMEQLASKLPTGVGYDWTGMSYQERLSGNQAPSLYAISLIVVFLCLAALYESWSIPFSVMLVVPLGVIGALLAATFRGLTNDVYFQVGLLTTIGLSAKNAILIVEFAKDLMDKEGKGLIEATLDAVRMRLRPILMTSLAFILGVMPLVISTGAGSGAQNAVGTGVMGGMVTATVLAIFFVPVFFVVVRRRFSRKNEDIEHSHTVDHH
# ASSAY_TEXT: Inhibition of AcrB in Escherichia coli BW25113 assessed as potentiation of levofloxacin induced antibacterial activity by measuring levofloxacin MIC at 256 ug/ml measured after 18 hrs by checkerboard titration method (reference value: 0.06 ug/ml)
# CONDITION_CONTEXT: dose 256.0 µg/ml
MEASURE: MIC (µg/mL)

smiles_notation=C[C@H](Cc1ccc(O)c(O)c1)[C@@H](C)Cc1ccc(O)c(O)c1 study_target="Multidrug efflux pump subunit AcrB (Escherichia coli (strain K12)) (UniProt P31224)" quantitative_result=0.03
smiles_notation=Oc1ccc(CCCCc2cc3cccc4ccc5cccc2c5c43)cc1O study_target="Multidrug efflux pump subunit AcrB (Escherichia coli (strain K12)) (UniProt P31224)" quantitative_result=0.06
smiles_notation=Oc1ccc(CCCCCCc2ccc(O)c(O)c2)cc1O study_target="Multidrug efflux pump subunit AcrB (Escherichia coli (strain K12)) (UniProt P31224)" quantitative_result=0.06
smiles_notation=Oc1ccc(CCCCCc2ccc(O)c(O)c2)cc1O study_target="Multidrug efflux pump subunit AcrB (Escherichia coli (strain K12)) (UniProt P31224)" quantitative_result=0.06
smiles_notation=Oc1ccc(CCCCc2ccc(O)c(O)c2)cc1O study_target="Multidrug efflux pump subunit AcrB (Escherichia coli (strain K12)) (UniProt P31224)" quantitative_result=0.06
smiles_notation=Oc1ccc(CCCCc2cc(O)c(O)c(O)c2)cc1O study_target="Multidrug efflux pump subunit AcrB (Escherichia coli (strain K12)) (UniProt P31224)" quantitative_result=0.06
